# measuredTarget: anti-CD28 Fab (SEQ ID NOs: 202, 203)
# Sequence (VH, as listed by the source, chain 1 of 2): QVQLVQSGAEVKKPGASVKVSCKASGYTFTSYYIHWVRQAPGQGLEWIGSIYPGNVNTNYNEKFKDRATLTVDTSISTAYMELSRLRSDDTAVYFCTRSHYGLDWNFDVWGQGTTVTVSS
# Sequence (VL, as listed by the source, chain 2 of 2): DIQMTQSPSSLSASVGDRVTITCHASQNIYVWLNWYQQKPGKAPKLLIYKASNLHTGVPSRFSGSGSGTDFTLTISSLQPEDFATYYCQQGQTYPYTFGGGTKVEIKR
# protocolNotes: phage binding ELISA; biotinylated anti-CD28 Fab captured on neutravidin plate, clonal phage supernatant, anti-M13-HRP detection;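 also: before crude clonal phage supernatants were added, wells were preincubated with CD28 antigen in blocking buffer or with blocking buffer only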
measure: Anti-CD28 Fab (SEQ ID NOs: 202, 203) signal
Lab note: jot the number down without any unit.

Example entries and their recorded answers appear below.
- binder: "DCWWDSPYHWRVCL [Phage-1256]"
  reportedValue: 0.57
- binder: "LCAAVFAYTWPMCF [Phage-1220]"
  reportedValue: 0.98
- binder: "TCAAGAAYTWPHCF [Phage-1252]"
  reportedValue: 0.69
- binder: "GCAAGAEYNWPTCL [Phage-1251]"
  reportedValue: 0.69
- binder: "SCAAGATYKWPACF [Phage-1240]"
  reportedValue: 0.8

stdin: For the binder TCSAGATYGWPACF [Phage-1244] , give its reported Anti-CD28 Fab (SEQ ID NOs: 202, 203) signal.
stdout: 0.76

stdin: Please list Anti-CD28 Fab (SEQ ID NOs: 202, 203) signal recorded for the binder SCAAGAHWSWPACL [Phage-1223]
stdout: 0.97

stdin: Answer with the recorded Anti-CD28 Fab (SEQ ID NOs: 202, 203) signal for the binder listed here: ECGWEPGQHWRVCF [Phage-1238]
stdout: 0.82

stdin: Hello, please tell me recorded Anti-CD28 Fab (SEQ ID NOs: 202, 203) signal for this one: SCAAGATYEWPTCL [Phage-1239]
stdout: 0.81
